system: XF498; test: NCI tumour cell line growth inhibition, 48 h
The source made the active and inactive calls. Cut-off read from the data, not from the text of the source: active = GI50 up to about 1.1 µM and inactive = higher.
Classes used: active, inactive

{"molecule": "Cc1c(C2Cc3ccccc3N2C(=O)/C=C\\C(=O)O)c2ccccc2n1C (stereo not drawn)", "group": "inactive"}
{"molecule": "CC1=CC(=O)N2[C@H](OC[C@@H]2C(C)C)O1", "group": "inactive"}
{"molecule": "Cc1nc2ccccc2c(=O)n1/N=C(\\N=N\\c1ccccc1Cl)c1ccccc1", "group": "inactive"}
{"molecule": "c1ccc(C2=NOC3(c4ccccc4)SC4CCCCC4CN23)cc1 (stereo not drawn)", "group": "inactive"}
{"molecule": "COc1ccc(OC(C)C(=O)O)c2c1CCCC2=O (stereo not drawn)", "group": "inactive"}
{"molecule": "Nc1cc(C(=O)NC2C3CC4CC(C3)CC2C4)nc(S)n1 (stereo not drawn)", "group": "inactive"}
{"molecule": "c1ccc(-c2nnc(-c3nn(-c4ccccc4)c4nc5ccccc5nc34)o2)cc1", "group": "inactive"}
{"molecule": "C/C(=N/OCCC(=O)O)C1CC1", "group": "inactive"}
{"molecule": "CCCCCCCCCCCCCC(=O)O[C@H]1CC[C@H](NC(=O)[C@H](OC)[C@H](O)[C@@H](O)[C@H](O)/C=C/C(C)C)C(=O)NC1 [BENGAMIDE A]", "group": "active"}
{"molecule": "CNC(=O)CN1CC(=O)N(C)C(=O)C1", "group": "inactive"}
{"molecule": "COc1cc(/C=C/C(=O)c2cccc3ccccc23)cc(OC)c1OC", "group": "inactive"}
{"molecule": "CCN/C(=N\\Nc1ccc([N+](=O)[O-])cc1)P(=O)(OC(C)C)OC(C)C", "group": "inactive"}
{"molecule": "CCCCCCCCCCCCCC(=O)NO", "group": "inactive"}
{"molecule": "Cc1ccc(N2C(=O)/C(=C/c3ccc(N(CCC#N)CCC#N)cc3)N=C2COc2ccc(Cl)cc2Cl)cc1", "group": "inactive"}
{"molecule": "Cc1cnc2c(c1)C(=O)C1=C(OC(C)(C)CC1O)C2=O (stereo not drawn)", "group": "inactive"}
{"molecule": "O=C(Nc1cc(Cl)ccc1Cl)C(=O)C(c1cnc2ccccc2n1)[N+](=O)[O-] (stereo not drawn)", "group": "inactive"}
{"molecule": "CSC1=Nc2ccccc2N=C(c2ccccc2)C1", "group": "inactive"}
{"molecule": "O=[N+]([O-])c1c(/C=N/Nc2ccccc2)oc(-c2ccc3c(c2)OCO3)c1-c1ccc2c(c1)OCO2", "group": "inactive"}
{"molecule": "CCOc1ccccc1/N=N/c1c(-c2ccccc2)nn(C(=O)CC(=O)Nc2cccc(C)c2)c1-c1ccccc1", "group": "inactive"}
{"molecule": "COc1cc2c(cc1OC)C(C(c1ccccc1)c1ccccc1)N(C)CC2 (stereo not drawn)", "group": "inactive"}
{"molecule": "COC(C(=O)NCCCCNC(=O)C(OC)c1ccccc1)c1ccccc1 (stereo not drawn)", "group": "inactive"}
{"molecule": "COc1ccc(CNc2cnc3cc(N)ccc3n2)cc1", "group": "inactive"}
{"molecule": "CC1CN1c1c(C(=O)/C=C/c2ccc(F)cc2)c(-c2ccccc2)nn(C)c1=O (stereo not drawn)", "group": "inactive"}
